tested.target: cGMP-dependent 3',5'-cyclic phosphodiesterase (Homo sapiens)
Sequence (O00408 whole entry): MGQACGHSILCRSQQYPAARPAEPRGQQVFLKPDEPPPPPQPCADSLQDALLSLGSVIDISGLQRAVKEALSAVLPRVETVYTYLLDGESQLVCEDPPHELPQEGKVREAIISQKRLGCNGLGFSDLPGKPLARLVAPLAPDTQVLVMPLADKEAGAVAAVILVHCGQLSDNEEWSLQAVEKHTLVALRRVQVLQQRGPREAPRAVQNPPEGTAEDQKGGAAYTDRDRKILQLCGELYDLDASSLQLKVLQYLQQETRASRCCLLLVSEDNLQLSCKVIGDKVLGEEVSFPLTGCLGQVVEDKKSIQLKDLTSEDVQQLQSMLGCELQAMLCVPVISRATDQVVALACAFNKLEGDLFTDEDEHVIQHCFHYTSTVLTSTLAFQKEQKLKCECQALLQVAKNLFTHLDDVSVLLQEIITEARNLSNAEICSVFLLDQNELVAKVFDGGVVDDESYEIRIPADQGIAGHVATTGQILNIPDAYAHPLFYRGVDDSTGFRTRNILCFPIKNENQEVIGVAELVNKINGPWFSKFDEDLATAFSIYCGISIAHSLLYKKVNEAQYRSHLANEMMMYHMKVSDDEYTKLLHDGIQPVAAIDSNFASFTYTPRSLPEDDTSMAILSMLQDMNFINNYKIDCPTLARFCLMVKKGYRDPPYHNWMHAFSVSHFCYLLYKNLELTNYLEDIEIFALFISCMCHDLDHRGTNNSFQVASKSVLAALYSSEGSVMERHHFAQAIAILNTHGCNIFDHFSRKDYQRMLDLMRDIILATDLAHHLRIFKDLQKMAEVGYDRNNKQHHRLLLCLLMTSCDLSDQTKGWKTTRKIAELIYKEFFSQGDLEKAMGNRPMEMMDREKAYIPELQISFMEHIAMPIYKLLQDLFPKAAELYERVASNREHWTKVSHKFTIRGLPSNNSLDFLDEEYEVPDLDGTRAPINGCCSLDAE
measured.parameter: pIC50
Hey, just a heads up that pIC50 is the negative log base 10 of the concentration in molar.

Retrieve pIC50 on cGMP-dependent 3',5'-cyclic phosphodiesterase (Homo sapiens); query `COCCNc1cc(O)c2c(=O)c3c(-c4nccs4)[nH]c(Cc4ccc5c(c4)OCO5)c3oc2c1`
6.97

###

tested.target: Cytochrome P450 2C9 (Homo sapiens, UniProt P11712)
Sequence (P11712 whole entry): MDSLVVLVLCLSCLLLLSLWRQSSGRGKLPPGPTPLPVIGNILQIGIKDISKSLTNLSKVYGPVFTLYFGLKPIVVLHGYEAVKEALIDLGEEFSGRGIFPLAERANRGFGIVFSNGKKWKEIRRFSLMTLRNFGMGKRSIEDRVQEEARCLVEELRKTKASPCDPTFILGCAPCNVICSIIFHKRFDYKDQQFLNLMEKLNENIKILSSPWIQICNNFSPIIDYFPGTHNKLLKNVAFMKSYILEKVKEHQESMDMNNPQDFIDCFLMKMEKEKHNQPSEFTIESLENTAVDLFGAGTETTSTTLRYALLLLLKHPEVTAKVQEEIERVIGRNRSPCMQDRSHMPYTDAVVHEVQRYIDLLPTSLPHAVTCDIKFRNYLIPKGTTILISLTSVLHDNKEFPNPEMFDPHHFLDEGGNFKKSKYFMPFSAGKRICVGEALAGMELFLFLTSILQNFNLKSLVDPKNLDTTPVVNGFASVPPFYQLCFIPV
assay.info: Inhibition of CYP2C9 in human liver microsomes in presence of NADPH
Type: ADME
measured.parameter: IC50 (µM)
Please give a number only; it is taken to be in µM.

For the compound `COCCNc1cc(O)c2c(=O)c3c(-c4nccs4)[nH]c(Cc4ccc5c(c4)OCO5)c3oc2c1` , give its reported IC50.
0.135

Measured values drawn from ChEMBL document CHEMBL4196172 for this set.
